experiment: Human HepG2 cell viability assay in 384 well format; assay type: toxicity, cell-based; set-up: dose 125 nL, time 70.5 hour; concentration not given beside the values; settings: HepG2 cells, read-out: Inhibition
Listing of entries alongside the reported cytotoxicity at 70.5 h.
Write the quantity with the unit trailing the number.

COMPOUND: Cc1ccc(NC(=O)c2coc(C)n2)c(C)c1
cytotoxicity at 70.5 h: -6.55%

COMPOUND: Cn1ncc2c1C(COCC1CC1)CN(CC1CC1)C2 (stereo not given)
cytotoxicity at 70.5 h: -6.33%

COMPOUND: O=C(CCCc1nc2ccccc2[nH]1)N1CCCC1c1ccncc1 (stereo not given)
cytotoxicity at 70.5 h: 32.6%

COMPOUND: CN1CCN(CCNC(=O)c2sccc2C2CC2)CC1
cytotoxicity at 70.5 h: -2.66%

COMPOUND: CCN1CCN(c2ccc(F)cc2C(C)NCc2ccncc2)CC1 (stereo not given)
cytotoxicity at 70.5 h: -1.51%

Could you tell me which cytotoxicity at 70.5 h is on file for `O=C(C1CCCC1)N1CCC2(CC1)COCCN2CC1CC1` ?
-12.4%

GET /values?readout=cytotoxicity at 70.5 h&item= `CN1CCN(S(=O)(=O)c2ccc(C(=O)N3CC[C@@H](O)C3)cc2)CC1=O`
-5.98%

For `Cc1ncsc1C(=O)N(Cc1cccs1)C1CC1` , what is its reported cytotoxicity at 70.5 h?
-16.1%

What measured cytotoxicity at 70.5 h goes with `Cc1noc([C@]23COC[C@H]2CN(C(=O)CN(C)C)C3)n1` ?
-4.74%

Which measured cytotoxicity at 70.5 h value corresponds to `CCCN(Cc1nc2ccccc2[nH]1)Cc1ccccc1OC` ?
-4%

---

molecules and their reported cytotoxicity at 70.5 h
assay: Human HepG2 cell viability assay in 384 well format; type: toxicity, cell-based; set-up: dose 125 nL, time 70.5 hour; concentration not given beside the values; settings: HepG2 cells, read-out: Inhibition
Give just the numeric value; % need not be written.

Previously resolved entries follow.
MOLECULE: O=C(NCCc1cccs1)[C@H]1CO[C@H]2CCN(CC3CC3)C[C@H]2C1
REPORTED MEASUREMENT: -5.6
--
MOLECULE: COc1ccc2c(ccn2CC(=O)NC[C@@H]2CCCN3CCCC[C@H]23)c1
REPORTED MEASUREMENT: -7.27
--
MOLECULE: CCCn1cnc2c1CN(S(=O)(=O)c1ccc(F)cc1)[C@H](C(=O)OC)C2
REPORTED MEASUREMENT: 12.5
--
MOLECULE: COc1ccccc1[C@@H]1CN(C(=O)Cc2csc(C)n2)C[C@H]1C(=O)O
REPORTED MEASUREMENT: 12.8
--
MOLECULE: CCC(=O)N1CCC2(C=C(C(=O)N3CCCC3)c3ccccc32)CC1
REPORTED MEASUREMENT: 8.56
--
MOLECULE: Cc1nn(C)c(N(C)C)c1CNCc1cnn(Cc2ccccc2)c1
REPORTED MEASUREMENT: -2.79
--
MOLECULE: Cc1ccc(-c2cn3c(n2)CO[C@@H](CNCc2nccs2)C3)cc1
REPORTED MEASUREMENT: -2.93
--
MOLECULE: COc1ccsc1C(=O)NCCN1CCOCC1
REPORTED MEASUREMENT: -7.25

Need cytotoxicity at 70.5 h of `O=C1CO[C@H]2CN(Cc3ccccc3Br)C[C@@H]2N1` , thanks.
20.8

Item CC(=O)NCC(=O)N1CCCC(C(=O)c2ccc(C(C)(C)C)cc2)C1 (stereo not given) has what recorded cytotoxicity at 70.5 h?
-0.592

Quick check: cytotoxicity at 70.5 h of `CCN(CC)C(=O)[C@@H]1C[C@@H](NC(=O)c2cccn2C2CC2)CN1C` ?
-7.5

For the molecule `CC(C)(C)c1cnc(CN2CCC(CO)CC2)o1` , what cytotoxicity at 70.5 h is on record?
-3.87

# input molecule: `O=C(c1nnn(-c2ccccc2)n1)N(CCO)CCO` ; wanted: its cytotoxicity at 70.5 h
-5.32

---

Listed here are molecules together with their documented cytotoxicity at 70.5 h.
assay: Human HepG2 cell viability assay in 384 well format; type: toxicity, cell-based; set-up: dose 125 nL, time 70.5 hour; concentration not given beside the values; conditions: HepG2 cells, read-out: Inhibition
Kindly answer with a numeric value in %, unit omitted.

Worked cases, cytotoxicity at 70.5 h given:
MOLECULE: CC(=O)N1CC[C@H]2[C@H](C[C@@H](CN3CCCC3)N2c2nccs2)C1
QUANTITY: cytotoxicity at 70.5 h
REPORTED MEASUREMENT: -7.72
--
MOLECULE: CCOC(=O)C1CCN(c2cc(C(=O)N3CCOCC3)nc(C)n2)CC1
QUANTITY: cytotoxicity at 70.5 h
REPORTED MEASUREMENT: 0.918
--
MOLECULE: CCc1nccn1C1CCCN(C(=O)c2cnc[nH]2)C1 (stereo not drawn)
QUANTITY: cytotoxicity at 70.5 h
REPORTED MEASUREMENT: -3.68
--
MOLECULE: Cc1ccc(CN(CCCN2CCOCC2)Cc2cnc(C)n2C)o1
QUANTITY: cytotoxicity at 70.5 h
REPORTED MEASUREMENT: 12.4
--
MOLECULE: Cn1cnnc1C1CCCN(C(=O)COc2ccccc2Cl)C1 (stereo not drawn)
QUANTITY: cytotoxicity at 70.5 h
REPORTED MEASUREMENT: -6.87

Which value of cytotoxicity at 70.5 h has been reported for `Cc1nc(CO[C@@H]2CC[C@H]3[C@H]2OCCN3Cc2cccnc2)cs1` in the records?
14.5

GET /values?readout=cytotoxicity at 70.5 h&item= COc1ccc(CC(=O)N2CCCC(c3nncn3C)C2)cc1 (stereo not drawn)
-2.88

cytotoxicity at 70.5 h lookup needed for COc1c(C)cnc(CN2CCCCC2CCN2CCOCC2)c1C (stereo not drawn) , thanks.
-11.7

---

test: Human HepG2 cell viability assay in 384 well format; type: toxicity, cell-based; parameters: dose 125 nL, time 70.5 hour; concentration not given beside the values; settings: HepG2 cells, read-out: Inhibition
The entries below are paired with their reported cytotoxicity at 70.5 h.
Reply with just the number (in %).

Recorded results for 4 molecules are shown here.
MOLECULE: Cc1nnsc1C(=O)NCc1nn(C)c2c1COCC2
REPORTED MEASUREMENT: -13.8

MOLECULE: Cc1nn(C)c(C)c1CCC(=O)N1CCCC1Cn1cccn1 (configuration not stated)
REPORTED MEASUREMENT: -2.38

MOLECULE: CNC(=O)C1CC(=O)N(c2cccc(F)c2)C1 (configuration not stated)
REPORTED MEASUREMENT: -3.04

MOLECULE: CC(C)N1CCN(c2ccc3ccc(C(=O)NC4CCCC4)cn23)CC1.O=C(O)C(F)(F)F
REPORTED MEASUREMENT: 101

Report cytotoxicity at 70.5 h for `CCCS(=O)(=O)N1CCC(NC(=O)c2cc(C)c(CC)s2)CC1` please.
-12.1

What value of cytotoxicity at 70.5 h has been recorded for this entry: CN(C)C1COC2(CCN(Cc3ccc4c(c3)OCO4)CC2)C1 (configuration not stated)
2.59

Consider the molecule shown here: CCCn1c(N2CCCC(C)C2)nc2c(C)nn(C)c2c1=O (configuration not stated) What is its recorded cytotoxicity at 70.5 h?
-14.3

---

test: Human HepG2 cell viability assay in 384 well format; format: toxicity, cell-based; design: dose 125 nL, time 70.5 hour; concentration not given beside the values; details: HepG2 cells, read-out: Inhibition
Measured cytotoxicity at 70.5 h values are reported for all entries that follow.
Give the figure together with its unit, number first.

# count of solved cases: 4
MOLECULE: CCC(c1ccc(F)cc1)S(=O)(=O)CCO (stereo not given)
REPORTED MEASUREMENT: 15.3%

MOLECULE: CSCc1noc(CN(C)C(C)c2nc(C)sc2C)n1 (stereo not given)
REPORTED MEASUREMENT: 6.01%

MOLECULE: CC(C)C1CC(=O)Nc2c1cnn2Cc1ccco1 (stereo not given)
REPORTED MEASUREMENT: -15.8%

MOLECULE: COc1cccc(CN2CCC3(CCN(c4ncc(F)cn4)CC3)C2)c1
REPORTED MEASUREMENT: 0.663%

Give its cytotoxicity at 70.5 h value. Item: `CN(C)C(=O)NCc1cc2n(n1)CCN(C[C@H]1[C@@H]3CNC[C@@H]31)C2`
15.7%

---

experiment: Human HepG2 cell viability assay in 384 well format; format: toxicity, cell-based; parameters: dose 125 nL, time 70.5 hour; concentration not given beside the values; settings: HepG2 cells, read-out: Inhibition
QUANTITY: cytotoxicity at 70.5 h (%)
Give the value, in units of %, as a plain number.

COMPOUND: CCCNC(=O)CC1OCCc2ccsc21 (stereo not drawn)
QUANTITY: cytotoxicity at 70.5 h
UNITS: %
REPORTED MEASUREMENT: -6.25
--
COMPOUND: CC(C(=O)NCc1ccc(-n2cncn2)nc1)S(C)(=O)=O (stereo not drawn)
QUANTITY: cytotoxicity at 70.5 h
UNITS: %
REPORTED MEASUREMENT: 0.438
--
COMPOUND: Cc1ccc2c(c1)c(CNC(C)Cn1ccnc1)nn2C (stereo not drawn)
QUANTITY: cytotoxicity at 70.5 h
UNITS: %
REPORTED MEASUREMENT: -5.3

I am curious: what cytotoxicity at 70.5 h value has been reported for O=C(Cc1ccc(F)cc1)NCC(O)(c1cccs1)C1CC1 (stereo not drawn) ?
13.2

Look at this compound and give its reported cytotoxicity at 70.5 h. O=C1NCCC12CN(CC1CC1)CC21CCNCC1 (stereo not drawn)
-6.52

Look up cytotoxicity at 70.5 h for this compound: `O=C(CN1CCCS1(=O)=O)Nc1ccc(OC2CCCC2)c(Cl)c1`
-0.366

# input compound: `O=S(=O)(CCc1ccccc1)Nc1cc(Cl)ccn1` ; wanted: its cytotoxicity at 70.5 h
0.152

Recorded cytotoxicity at 70.5 h for `c1ccc(CN2Cc3[nH]nc(COc4cccnc4)c3C2)nc1` , please?
-7.63

Item under review: `CS(=O)(=O)N1CC[C@]2(O)CCN(c3ccnc(N)n3)C[C@@H]2C1` . Reported cytotoxicity at 70.5 h?
-0.327

Would you kindly share the measured cytotoxicity at 70.5 h for `COc1ccc(F)cc1CSCC(=O)N(CCC#N)CCC#N` ?
-3.2

cytotoxicity at 70.5 h for `O=c1c(S(=O)(=O)N2CCCC2)cccn1Cc1ccc(F)cc1Cl` ?
31.5

Consider the compound shown here: `Cn1cc(CN2CCO[C@@H]3CN(Cc4ccoc4)C[C@@H]3C2)cn1` What is its recorded cytotoxicity at 70.5 h?
-0.642

Entry CCc1nc(CC(=O)N2CCCC2c2c(C)nn(C)c2OC)cs1 (stereo not drawn) : reported cytotoxicity at 70.5 h = ?
-8.39

# query: cytotoxicity at 70.5 h of entry COc1c(C)cnc(CN2CCCC(c3noc(C4CC4)n3)C2)c1C (stereo not drawn)
7.81
